For reference, the following Ki results for Estrogen receptor beta (Homo sapiens, UniProt Q92731) were taken from various sources.

[
  {
    "Molecule": "CN(CCCc1ccc(C#N)cc1)c1nc(NCCc2ccc(O)cc2)nc(N2CCNCC2)n1",
    "Ki": "0.09 µM"
  },
  {
    "Molecule": "Cc1c(-c2ccc(O)cc2)nn(-c2ccc(O)cc2)c1-c1ccc(OCCN2CCCCC2)cc1",
    "Ki": "1.8 µM"
  },
  {
    "Molecule": "COc1ccc2c(c1)CCC1=CC(=O)CCC12Cc1ccccc1 (single isomer, unassigned; form 2)",
    "Ki": "> 10 µM"
  },
  {
    "Molecule": "c1ccc(CNc2cc(CCc3cccc4ccccc34)nc(NCc3cccc4ccccc34)n2)cc1",
    "Ki": "> 1000 µM"
  },
  {
    "Molecule": "CC(C)CNc1cc(CCc2ccccc2)nc(NCc2ccccc2)n1",
    "Ki": "> 1000 µM"
  },
  {
    "Molecule": "CC(C)CCc1nc(NCC(C)C)cc(NCC(C)C)n1",
    "Ki": "> 1000 µM"
  }
]

Form field: reported Ki of O=C1c2ccc(O)cc2C(=O)c2ccc(O)cc21 0.69 µM

Same read-out for CC(C)CCc1cc(NCc2cccc3ccccc23)nc(NCC(C)C)n1 ? > 1000 µM

Same read-out for Oc1ccc(C2=C(c3ccc(C(F)(F)F)cc3)c3ccc(O)cc3C2)cc1 ? 0.00091 µM

Same read-out for CC(C)CN(C(=O)OC(C)(C)C)c1cc(CCc2ccccc2)nc(NCc2ccccc2)n1 ? > 1000 µM

Same read-out for CN(CCCc1ccccc1Cl)c1nc(NCCc2ccc(O)cc2)nc(N2CCNCC2)n1 ? 0.04 µM

Same read-out for C(=C\c1cc(OCc2ccccc2)nc(OCc2ccccc2)n1)/c1ccccc1 ? > 1000 µM

Same read-out for CC(C)CCc1cc(N(Cc2ccccc2)C(=O)OC(C)(C)C)nc(NCC(C)C)n1 ? > 1000 µM

Same read-out for CCN(CCCc1ccc(Cl)cc1)c1nc(NCCc2ccc(O)cc2)nc(N2CCNCC2)n1 ? 0.1 µM

Same read-out for CC(C)CNc1cc(CCc2cccc3ccccc23)nc(NCC(C)C)n1 ? > 1000 µM

Same read-out for CC(C)CSc1cc(SCC(C)C)nc(SCC(C)C)n1 ? > 1000 µM

Same read-out for c1ccc(CNc2cc(CCc3cccc4ccccc34)nc(NCc3ccccc3)n2)cc1 ? > 1000 µM

Same read-out for C#C[C@]1(O)CC[C@H]2[C@@H]3CCC4=CC(=O)CCC4=C3[C@@H](c3ccc(N(C)C(=O)CC[C@H](NC(=O)CC[C@@H](C)[C@H]4CC[C@H]5[C@@H]6[C@H](O)C[C@@H]7C[C@H](O)CC[C@]7(C)[C@H]6C[C@H](O)[C@]45C)C(=O)O)cc3)C[C@@]21C ? 0.24 µM

Same read-out for CC(C)CCc1cc(NCC(C)C)nc(S(=O)(=O)CC(C)C)n1 ? > 1000 µM
